Data origin, for the record: ChEMBL document CHEMBL1152288

experimental.details: Plasma clearance in mouse at 5 mg/kg, iv or 30 mg/kg, po
Format: ADME, organism-based
assay.metric: clearance

Report clearance for C=CCN(CC=C)C(=O)[C@@]1(c2cccs2)C[C@H]1CN.Cl please.
8.1 L/h/kg

----------
experimental.details: Plasma clearance in Sprague-Dawley rat at 2.5 mg/kg, iv
Format: ADME, organism-based
Set-up: dose 2.5 mg/kg, route intravenous
assay.metric: clearance (mL/min/kg)
Number only, in mL/min/kg; omit the unit.

Report clearance for CCN(CC)C(=O)[C@]1(c2ccccc2)C[C@H]1CN please.
58

----------
experimental.details: in vitro
test.parameters: human, Caco-2
Description: Apparent permeability from apical to basolateral side of the human Caco-2 cells
The reader will find reported Papp A→B values listed item by item below.
Number only, in ×10⁻⁶ cm/s; omit the unit.

Below: 6 molecules and their reported Papp A→B.
NC[C@@H]1C[C@@]1(C(=O)N1Cc2ccccc2C1)c1cccs1 | 8.4
C=CCN(CC=C)C(=O)[C@@]1(c2cccs2)C[C@H]1CN | 16.7
C=CCN(CC)C(=O)[C@@]1(c2cccs2)C[C@H]1CN | 13.7
C#CCN(CC)C(=O)[C@@]1(c2cccs2)C[C@H]1CN | 20.6
C#CCN(CC#C)C(=O)[C@@]1(c2cccs2)C[C@H]1CN | 25
C=C(F)CN(CC)C(=O)[C@@]1(c2cccs2)C[C@H]1CN | 16.7

Report Papp A→B for C[C@H]1O[C@@H](O[C@H]2[C@@H](O)C[C@H](O[C@H]3[C@@H](O)C[C@H](O[C@H]4CC[C@@]5(C)[C@H](CC[C@@H]6[C@@H]5C[C@@H](O)[C@]5(C)[C@@H](C7=CC(=O)OC7)CC[C@]65O)C4)O[C@@H]3C)O[C@@H]2C)C[C@H](O)[C@@H]1O [DIGOXIN] please.
1

Report Papp A→B for C=CCN(C(=O)[C@@]1(c2cccs2)C[C@H]1CN)C1CC1 please.
17.8

Report Papp A→B for CNCC[C@@H](Oc1ccccc1C)c1ccccc1 [ATOMOXETINE] please.
43.7

Report Papp A→B for C=CCN(Cc1nccs1)C(=O)[C@@]1(c2cccs2)C[C@H]1CN please.
6.4

----------
experimental.details: Cmax in Fischer 344 rat at 50 mg/kg, po
Type: ADME, organism-based
Set-up: dose 50 mg/kg, route oral
test.parameters: in vivo
assay.metric: Cmax (ng/mL)
Number only, in ng/mL; omit the unit.

Report Cmax for CNCC[C@@H](Oc1ccccc1C)c1ccccc1 [ATOMOXETINE] please.
170

----------
target.or.test.system: Transporter (Rattus norvegicus, UniProt Q63380)
Sequence (Q63380 whole entry): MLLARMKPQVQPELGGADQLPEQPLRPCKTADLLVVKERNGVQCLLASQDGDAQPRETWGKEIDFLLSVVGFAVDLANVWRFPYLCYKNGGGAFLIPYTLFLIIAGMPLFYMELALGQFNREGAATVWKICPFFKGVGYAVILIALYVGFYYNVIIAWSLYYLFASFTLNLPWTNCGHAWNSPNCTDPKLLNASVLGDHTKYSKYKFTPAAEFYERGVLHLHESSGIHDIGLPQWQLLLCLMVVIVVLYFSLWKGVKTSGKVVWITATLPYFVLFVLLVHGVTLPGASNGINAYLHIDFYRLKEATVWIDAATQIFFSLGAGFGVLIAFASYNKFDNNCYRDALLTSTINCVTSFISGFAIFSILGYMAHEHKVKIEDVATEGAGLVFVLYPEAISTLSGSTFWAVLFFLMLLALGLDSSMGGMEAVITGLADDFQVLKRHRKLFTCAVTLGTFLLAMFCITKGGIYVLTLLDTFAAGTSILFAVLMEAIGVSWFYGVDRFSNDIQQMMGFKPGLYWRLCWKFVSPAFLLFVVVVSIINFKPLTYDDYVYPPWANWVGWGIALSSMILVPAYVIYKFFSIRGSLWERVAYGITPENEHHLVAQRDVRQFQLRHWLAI
experimental.details: biochemical
Description: Displacement of Levo[ring-2,5,6-3H]norepinephrine from rat synaptosomal NET expressed in HEK293 cells by microplate scintillation counter
The reader will find reported IC50 values listed item by item below.
Number only, in µM; omit the unit.

Below: 2 molecules and their reported IC50.
C#CCN(CC)C(=O)[C@@]1(c2cccs2)C[C@H]1CN | 0.16
C=CCN(CC)C(=O)[C@@]1(c2ccsc2)C[C@H]1CN | 0.0064

Then this molecule:
Report IC50 for CCN(CC)C(=O)[C@]1(c2ccccc2)C[C@H]1CN please.
0.016

----------
experimental.details: Half life in Sprague-Dawley rat at 5 mg/kg, iv
Assay type: ADME, organism-based
Set-up: dose 5 mg/kg, route intravenous
test.parameters: in vivo
The reader will find reported half-life values listed item by item below.
Number only, in min; omit the unit.

Report half-life for C=CCN(CC=C)C(=O)[C@@]1(c2cccs2)C[C@H]1CN please.
36

Report half-life for C=C(F)CN(CC)C(=O)[C@@]1(c2cccs2)C[C@H]1CN please.
36

----------
The reader will find reported MRT values listed item by item below.
experimental.details: Mean residence time in Sprague-Dawley rat at 5 mg/kg, iv
Assay type: ADME, organism-based
Design: dose 5 mg/kg, route intravenous
test.parameters: in vivo
Number only, in min; omit the unit.

Report MRT for C=CCN(CC=C)C(=O)[C@@]1(c2cccs2)C[C@H]1CN please.
42

Report MRT for C=C(F)CN(CC)C(=O)[C@@]1(c2cccs2)C[C@H]1CN please.
42

----------
experimental.details: Volume of distribution at steady state in monkey at 5 mg/kg, iv or 30 mg/kg, po
Type: ADME, organism-based, Macaca mulatta
test.parameters: rhesus monkey, in vivo, read-out: Vdss
The reader will find reported Vd values listed item by item below.
Number only, in L/kg; omit the unit.

C=C(F)CN(CC)C(=O)[C@@]1(c2cccs2)C[C@H]1CN.Cl | 4.4

Then this compound:
Report Vd for C=CCN(CC=C)C(=O)[C@@]1(c2cccs2)C[C@H]1CN.Cl please.
3.8

----------
experimental.details: Drug excretion in Sprague-Dawley rat urine at 5 mg/kg, iv
Format: ADME, organism-based
Parameters: dose 5 mg/kg, route intravenous
test.parameters: read-out: Activity
assay.metric: dose excreted (%)
Number only, in %; omit the unit.

Report dose excreted for C=C(F)CN(CC)C(=O)[C@@]1(c2cccs2)C[C@H]1CN please.
30

----------
experimental.details: Tmax in Beagle dog at 5 mg/kg, iv or 30 mg/kg, po
Type: ADME, organism-based, Canis lupus familiaris
test.parameters: in vivo
The reader will find reported Tmax values listed item by item below.
Number only, in h; omit the unit.

C=C(F)CN(CC)C(=O)[C@@]1(c2cccs2)C[C@H]1CN.Cl | 1.2

Report Tmax for C=CCN(CC=C)C(=O)[C@@]1(c2cccs2)C[C@H]1CN.Cl please.
1.8

----------
experimental.details: Drug level in Sprague-Dawley rat brain at 30 mg/kg, po after 1 hr
Format: ADME, organism-based
Set-up: dose 30 mg/kg, route oral
test.parameters: read-out: Drug uptake
The reader will find reported concentration at 1 h values listed item by item below.
Number only, in ng/g; omit the unit.

Below: 3 molecules and their reported concentration at 1 h.
C=C(F)CN(CC)C(=O)[C@@]1(c2cccs2)C[C@H]1CN | 70
C=CCN(CC=C)C(=O)[C@@]1(c2cccs2)C[C@H]1CN | 127
C#CCN(CC)C(=O)[C@@]1(c2cccs2)C[C@H]1CN | 230

Report concentration at 1 h for NC[C@@H]1C[C@@]1(C(=O)N1Cc2ccccc2C1)c1cccs1 please.
28

----------
The reader will find reported IC50 values listed item by item below.
target.or.test.system: Sodium-dependent dopamine transporter (Rattus norvegicus, UniProt P23977)
Sequence (P23977 whole entry): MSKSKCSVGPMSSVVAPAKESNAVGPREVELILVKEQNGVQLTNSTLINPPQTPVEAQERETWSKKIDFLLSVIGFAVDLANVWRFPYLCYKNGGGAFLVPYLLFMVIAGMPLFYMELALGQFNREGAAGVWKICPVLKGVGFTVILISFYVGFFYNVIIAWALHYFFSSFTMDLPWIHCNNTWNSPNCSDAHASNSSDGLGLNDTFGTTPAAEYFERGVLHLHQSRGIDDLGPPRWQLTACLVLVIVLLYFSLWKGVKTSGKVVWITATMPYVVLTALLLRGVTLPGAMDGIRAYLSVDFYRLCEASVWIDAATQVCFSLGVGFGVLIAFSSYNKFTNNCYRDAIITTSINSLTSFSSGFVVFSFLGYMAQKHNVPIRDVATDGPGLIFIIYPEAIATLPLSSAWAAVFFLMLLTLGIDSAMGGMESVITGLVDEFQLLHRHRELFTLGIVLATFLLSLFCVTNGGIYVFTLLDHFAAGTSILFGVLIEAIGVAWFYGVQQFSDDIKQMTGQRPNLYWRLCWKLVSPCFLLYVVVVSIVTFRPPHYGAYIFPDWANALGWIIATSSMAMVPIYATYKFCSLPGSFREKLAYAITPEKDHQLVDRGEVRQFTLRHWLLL

Below: 2 compounds and their reported IC50.
CCN(CC)C(=O)[C@]1(c2ccccc2)C[C@H]1CN | 20 µM
C=CCN(CC)C(=O)[C@@]1(c2ccsc2)C[C@H]1CN | > 10 µM

Report IC50 for C=CCN(CC=C)C(=O)[C@@]1(c2cccs2)C[C@H]1CN please.
19 µM

----------
experimental.details: Apparent elimination half life in Sprague-Dawley rat at 10 mg/kg, po
Assay type: ADME, organism-based
Design: dose 10 mg/kg, route oral
test.parameters: in vivo, read-out: beta t1/2 (converted)
assay.metric: half-life
Answers without a unit are incomplete; give the number and then its unit.

Report half-life for CCN(CC)C(=O)[C@]1(c2ccccc2)C[C@H]1CN please.
1.3 h

----------
experimental.details: Bioavailability in Sprague-Dawley rat at 2.5 mg/kg, iv
Assay type: ADME, organism-based
test.parameters: in vivo
assay.metric: bioavailability
Answers without a unit are incomplete; give the number and then its unit.

Report bioavailability for CCN(CC)C(=O)[C@]1(c2ccccc2)C[C@H]1CN please.
16%

----------
experimental.details: Volume of distribution at steady state in Beagle dog at 5 mg/kg, iv or 30 mg/kg, po
Type: ADME, organism-based, Canis lupus familiaris
test.parameters: in vivo, read-out: Vdss
assay.metric: Vd (L/kg)
Number only, in L/kg; omit the unit.

C=C(F)CN(CC)C(=O)[C@@]1(c2cccs2)C[C@H]1CN.Cl | 2.4

Then this compound:
Report Vd for C=CCN(CC=C)C(=O)[C@@]1(c2cccs2)C[C@H]1CN.Cl please.
3.6

----------
experimental.details: Cmax in Sprague-Dawley rat at 10 mg/kg, po
Format: ADME, organism-based
Set-up: dose 10 mg/kg, route oral
test.parameters: in vivo
assay.metric: Cmax (ng/mL)
Number only, in ng/mL; omit the unit.

Report Cmax for CCN(CC)C(=O)[C@]1(c2ccccc2)C[C@H]1CN please.
232

----------
experimental.details: AUC in monkey at 5 mg/kg, iv or 30 mg/kg, po
Format: ADME, organism-based, Macaca mulatta
test.parameters: rhesus monkey, plasma
assay.metric: AUC
Answers without a unit are incomplete; give the number and then its unit.

C=CCN(CC=C)C(=O)[C@@]1(c2cccs2)C[C@H]1CN.Cl | 6320 ng·h/mL

Then this molecule:
Report AUC for C=C(F)CN(CC)C(=O)[C@@]1(c2cccs2)C[C@H]1CN.Cl please.
9050 ng·h/mL

----------
experimental.details: Mean residence time in Sprague-Dawley rat at 2.5 mg/kg, iv
Type: ADME, organism-based
Set-up: dose 2.5 mg/kg, route intravenous
test.parameters: in vivo
assay.metric: MRT (min)
Number only, in min; omit the unit.

Report MRT for CCN(CC)C(=O)[C@]1(c2ccccc2)C[C@H]1CN please.
31.2
